Assay: Reduction of COL1A1 mRNA expression in healthy human ISEMF at 1 uM by RT-PCR analysis
Assay type: functional
Activity calls are given as the source filed them. No cut-off for these calls is given here.
Outcome codes: yes (1) = active, no (0) = inactive

| molecule | assigned-category |
| --- | --- |
| O=c1c2cc3c(cc2ncn1Cc1cccc(-c2ccccc2)c1)OCO3 | yes (1) |
| COc1cc2ncn(CC(O)c3ccc(Br)cc3)c(=O)c2cc1OC (stereo unspecified) | yes (1) |
| O=c1c2cc3c(cc2ncn1Cc1ccc(Br)cc1)OCO3 | no (0) |
| COc1cc2ncn(Cc3cccc(Br)c3)c(=O)c2cc1OC | no (0) |
| Clc1ccc(Nc2nnc(Cc3ccncc3)c3ccccc23)cc1 | yes (1) |
| O=C(Cn1cnc2cc3c(cc2c1=O)OCCO3)c1ccc(Br)cc1 | yes (1) |

* * *

Assay: Reduction of FN1 mRNA expression in human HSC cells at 1 uM by RT-PCR analysis
Assay type: functional, cell-based
Activity calls are given as the source filed them. No cut-off for these calls is given here.
Outcome codes: true (1) for active, false (0) for inactive

| compound | assigned-category |
| --- | --- |
| COc1cc2ncn(CC(=O)c3ccc(Br)cc3)c(=O)c2cc1OC | true (1) |
| O=c1c2cc3c(cc2ncn1CC(O)c1cccc(Cl)c1)OCCO3 (stereo unspecified) | false (0) |
| Clc1ccc(Nc2nnc(Cc3ccncc3)c3ccccc23)cc1 | true (1) |
| O=c1c2cc3c(cc2ncn1Cc1ccc(Br)cc1)OCO3 | false (0) |
| COc1cc2ncn(Cc3cccnc3Br)c(=O)c2cc1OC | true (1) |
| COc1cc2ncn(Cc3cccc(Br)c3)c(=O)c2cc1OC | false (0) |

* * *

// inhibition lookup, one value per entry
Species on record: Homo sapiens
Assay: Inhibition of human PI3K using phosphatidylinositol 4,5-diphosphate as substrate at 1 uM measured after 20 mins at 30 degC by liquid scintillation counting method in presence of [gamma-32P]-ATP
test-readout: inhibition (%)

| compound | test-readout | endpoint-result |
| --- | --- | --- |
| O=C(Cn1cnc2cc3c(cc2c1=O)OCCO3)c1cccc(Br)c1 | inhibition | 35 |
| COc1cc2ncn(Cc3cccnc3Br)c(=O)c2cc1OC | inhibition | 25 |
| Clc1ccc(Nc2nnc(Cc3ccncc3)c3ccccc23)cc1 | inhibition | 18 |
| COc1cc2ncn(Cc3ccc(Br)cc3)c(=O)c2cc1OC | inhibition | 0 |
| O=c1c2cc3c(cc2ncn1Cc1ccc(Br)cc1)OCCO3 | inhibition | 0 |
| O=c1c2cc3c(cc2ncn1Cc1cccc(Br)c1)OCCO3 | inhibition | 28 |
| COc1cc2ncn(Cc3cccc(-c4ccccc4)c3)c(=O)c2cc1OC | inhibition | 21 |
| O=c1c2cc3c(cc2ncn1Cc1ccc(Br)cc1)OCO3 | inhibition | 7 |
| O=c1c2cc3c(cc2ncn1Cc1cccc(-c2ccccc2)c1)OCO3 | inhibition | 0 |
| COc1cc2ncn(CC(O)c3ccc(Br)cc3)c(=O)c2cc1OC (stereo unspecified) | inhibition | 5 |
| COc1cc2ncn(Cc3cccc(Br)c3)c(=O)c2cc1OC | inhibition | 15 |
| O=c1c2cc3c(cc2ncn1Cc1ccc(-c2ccccc2)cc1)OCCO3 | inhibition | 25 |
| O=C(Cn1cnc2cc3c(cc2c1=O)OCCO3)c1ccc(Br)cc1 | inhibition | 17 |
| O=c1c2cc3c(cc2ncn1CC(O)c1cccc(Cl)c1)OCCO3 (stereo unspecified) | inhibition | 0 |
| COc1cc2ncn(CC(=O)c3ccc(Br)cc3)c(=O)c2cc1OC | inhibition | 0 |
| O=c1c2cc3c(cc2ncn1Cc1ccc(-c2ccccc2)cc1)OCO3 | inhibition | 0 |

* * *

Experiment: Reduction of COL1A1 mRNA expression in healthy human HSC cells at 1 uM by RT-PCR analysis
Type: functional, cell-based
The source made the active and inactive calls. The calls are words filed in the database; no cut-off is given here.
Outcome codes: active, inactive

| molecule | assigned-category |
| --- | --- |
| O=c1c2cc3c(cc2ncn1CC(O)c1cccc(Cl)c1)OCCO3 (centres undefined) | inactive |
| O=C(Cn1cnc2cc3c(cc2c1=O)OCCO3)c1cccc(Br)c1 | active |
| Clc1ccc(Nc2nnc(Cc3ccncc3)c3ccccc23)cc1 | active |
| COc1cc2ncn(Cc3cccc(Br)c3)c(=O)c2cc1OC | inactive |
| O=c1c2cc3c(cc2ncn1Cc1ccc(-c2ccccc2)cc1)OCCO3 | active |
| O=c1c2cc3c(cc2ncn1Cc1ccc(Br)cc1)OCO3 | inactive |
| O=c1c2cc3c(cc2ncn1Cc1cccc(-c2ccccc2)c1)OCO3 | active |
| COc1cc2ncn(CC(O)c3ccc(Br)cc3)c(=O)c2cc1OC (centres undefined) | active |
| O=C(Cn1cnc2cc3c(cc2c1=O)OCCO3)c1ccc(Br)cc1 | active |

* * *

Biological target: Serine/threonine-protein kinase mTOR (Homo sapiens) (UniProt P42345)
Test: Inhibition of human mTOR using PHAS-1 as substrate at 1 uM measured after 20 mins at 30 degC by liquid scintillation counting method in presence of [gamma-32P]-ATP
// inhibition lookup, one value per entry
test-readout: inhibition (%)

| compound | test-readout | endpoint-result |
| --- | --- | --- |
| O=c1c2cc3c(cc2ncn1Cc1ccc(Br)cc1)OCO3 | inhibition | 17 |
| Clc1ccc(Nc2nnc(Cc3ccncc3)c3ccccc23)cc1 | inhibition | 49 |
| COc1cc2ncn(Cc3cccc(Br)c3)c(=O)c2cc1OC | inhibition | 18 |
| O=c1c2cc3c(cc2ncn1Cc1cccc(-c2ccccc2)c1)OCO3 | inhibition | 0 |
| O=c1c2cc3c(cc2ncn1CC(O)c1cccc(Cl)c1)OCCO3 (stereo unspecified) | inhibition | 1 |
| O=c1c2cc3c(cc2ncn1Cc1ccc(-c2ccccc2)cc1)OCCO3 | inhibition | 37 |
| O=C(Cn1cnc2cc3c(cc2c1=O)OCCO3)c1ccc(Br)cc1 | inhibition | 23 |
| COc1cc2ncn(Cc3ccc(Br)cc3)c(=O)c2cc1OC | inhibition | 25 |
| COc1cc2ncn(CC(=O)c3ccc(Br)cc3)c(=O)c2cc1OC | inhibition | 17 |
| O=c1c2cc3c(cc2ncn1Cc1cccc(Br)c1)OCCO3 | inhibition | 28 |
| O=C(Cn1cnc2cc3c(cc2c1=O)OCCO3)c1cccc(Br)c1 | inhibition | 2 |

* * *

// inhibition lookup, one value per entry
Target: Proto-oncogene tyrosine-protein kinase Src (Homo sapiens) (UniProt P12931)
Sequence (P12931 2-536 limits assumed): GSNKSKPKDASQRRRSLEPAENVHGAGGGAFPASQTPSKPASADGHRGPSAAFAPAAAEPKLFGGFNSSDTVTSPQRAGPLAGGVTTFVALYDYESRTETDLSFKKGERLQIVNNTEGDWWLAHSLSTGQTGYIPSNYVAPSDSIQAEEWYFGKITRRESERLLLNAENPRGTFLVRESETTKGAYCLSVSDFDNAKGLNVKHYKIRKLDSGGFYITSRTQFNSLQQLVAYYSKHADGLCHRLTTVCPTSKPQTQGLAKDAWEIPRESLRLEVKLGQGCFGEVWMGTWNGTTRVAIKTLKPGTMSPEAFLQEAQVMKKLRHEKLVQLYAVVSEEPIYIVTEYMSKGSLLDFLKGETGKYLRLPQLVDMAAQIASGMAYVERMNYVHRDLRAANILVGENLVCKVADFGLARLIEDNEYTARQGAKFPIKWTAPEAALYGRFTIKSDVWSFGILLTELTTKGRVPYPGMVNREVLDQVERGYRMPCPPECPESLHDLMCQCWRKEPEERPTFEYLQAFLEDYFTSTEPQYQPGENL
Assay: Inhibition of human Src using myelin basic protein as substrate at 1 uM measured after 20 mins at 30 degC by liquid scintillation counting method in presence of [gamma-32P]-ATP
test-readout: inhibition (%)

| molecule | endpoint-result |
| --- | --- |
| COc1cc2ncn(CC(=O)c3ccc(Br)cc3)c(=O)c2cc1OC | 4 |
| COc1cc2ncn(Cc3cccc(Br)c3)c(=O)c2cc1OC | 0 |
| COc1cc2ncn(Cc3cccnc3Br)c(=O)c2cc1OC | 3 |
| O=c1c2cc3c(cc2ncn1Cc1ccc(Br)cc1)OCO3 | 0 |
| O=c1c2cc3c(cc2ncn1Cc1cccc(-c2ccccc2)c1)OCO3 | 0 |
| O=c1c2cc3c(cc2ncn1Cc1ccc(-c2ccccc2)cc1)OCO3 | 0 |
| O=C(Cn1cnc2cc3c(cc2c1=O)OCCO3)c1cccc(Br)c1 | 0 |
| O=C(Cn1cnc2cc3c(cc2c1=O)OCCO3)c1ccc(Br)cc1 | 0 |
| COc1cc2ncn(Cc3ccc(Br)cc3)c(=O)c2cc1OC | 0 |
| Clc1ccc(Nc2nnc(Cc3ccncc3)c3ccccc23)cc1 [VATALANIB] | 16 |
| O=c1c2cc3c(cc2ncn1Cc1cccc(Br)c1)OCCO3 | 0 |
| COc1cc2ncn(Cc3cccc(-c4ccccc4)c3)c(=O)c2cc1OC | 0 |
| COc1cc2ncn(CC(O)c3ccc(Br)cc3)c(=O)c2cc1OC (stereo unspecified) | 0 |
| O=c1c2cc3c(cc2ncn1CC(O)c1cccc(Cl)c1)OCCO3 (stereo unspecified) | 0 |
| O=c1c2cc3c(cc2ncn1Cc1ccc(-c2ccccc2)cc1)OCCO3 | 5 |
| O=c1c2cc3c(cc2ncn1Cc1ccc(Br)cc1)OCCO3 | 0 |

* * *

Molecular target: Platelet-derived growth factor receptor beta (Homo sapiens) (UniProt P09619)
Sequence (P09619 whole entry): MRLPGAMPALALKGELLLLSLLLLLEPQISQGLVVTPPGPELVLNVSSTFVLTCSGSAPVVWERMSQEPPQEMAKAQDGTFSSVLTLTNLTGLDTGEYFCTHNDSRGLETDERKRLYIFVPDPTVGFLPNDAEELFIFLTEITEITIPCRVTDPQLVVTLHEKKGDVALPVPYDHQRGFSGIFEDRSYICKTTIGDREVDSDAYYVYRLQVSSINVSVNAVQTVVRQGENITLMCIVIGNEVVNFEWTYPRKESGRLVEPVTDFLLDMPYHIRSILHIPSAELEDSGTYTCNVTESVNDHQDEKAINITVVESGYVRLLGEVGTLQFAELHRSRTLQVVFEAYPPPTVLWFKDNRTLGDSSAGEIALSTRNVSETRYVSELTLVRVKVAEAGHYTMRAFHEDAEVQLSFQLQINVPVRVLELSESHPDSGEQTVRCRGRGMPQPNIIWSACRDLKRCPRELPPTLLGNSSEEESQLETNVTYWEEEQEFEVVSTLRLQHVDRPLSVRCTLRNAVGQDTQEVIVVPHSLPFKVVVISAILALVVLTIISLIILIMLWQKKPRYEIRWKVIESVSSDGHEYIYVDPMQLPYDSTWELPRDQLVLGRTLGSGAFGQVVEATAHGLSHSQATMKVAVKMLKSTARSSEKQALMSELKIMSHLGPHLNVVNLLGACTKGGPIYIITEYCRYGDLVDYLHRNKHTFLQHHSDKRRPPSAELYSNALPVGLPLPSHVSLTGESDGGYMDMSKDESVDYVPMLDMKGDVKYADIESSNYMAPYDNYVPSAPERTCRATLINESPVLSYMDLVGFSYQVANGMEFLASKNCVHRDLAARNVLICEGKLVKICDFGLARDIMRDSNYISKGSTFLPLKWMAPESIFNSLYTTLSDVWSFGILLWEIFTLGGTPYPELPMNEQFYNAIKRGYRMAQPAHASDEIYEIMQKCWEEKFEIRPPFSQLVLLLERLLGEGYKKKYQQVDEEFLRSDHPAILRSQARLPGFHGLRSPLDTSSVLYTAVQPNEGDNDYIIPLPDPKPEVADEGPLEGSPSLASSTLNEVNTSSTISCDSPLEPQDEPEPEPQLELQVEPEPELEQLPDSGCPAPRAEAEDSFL
Experiment: Inhibition of human PDGFR-beta at 1 uM measured after 20 mins at 30 degC by liquid scintillation counting method in presence of [gamma-32P]-ATP
// inhibition lookup, one value per entry
test-readout: inhibition (%)

| compound | test-readout | unit-of-measurement | endpoint-result |
| --- | --- | --- | --- |
| COc1cc2ncn(Cc3ccc(Br)cc3)c(=O)c2cc1OC | inhibition | % | 0 |
| COc1cc2ncn(CC(=O)c3ccc(Br)cc3)c(=O)c2cc1OC | inhibition | % | 1 |
| O=C(Cn1cnc2cc3c(cc2c1=O)OCCO3)c1ccc(Br)cc1 | inhibition | % | 1 |
| O=c1c2cc3c(cc2ncn1CC(O)c1cccc(Cl)c1)OCCO3 (stereo unspecified) | inhibition | % | 0 |
| O=c1c2cc3c(cc2ncn1Cc1cccc(-c2ccccc2)c1)OCO3 | inhibition | % | 0 |
| O=c1c2cc3c(cc2ncn1Cc1cccc(Br)c1)OCCO3 | inhibition | % | 0 |
| O=c1c2cc3c(cc2ncn1Cc1ccc(-c2ccccc2)cc1)OCCO3 | inhibition | % | 13 |
| Clc1ccc(Nc2nnc(Cc3ccncc3)c3ccccc23)cc1 | inhibition | % | 72 |
| O=c1c2cc3c(cc2ncn1Cc1ccc(Br)cc1)OCCO3 | inhibition | % | 1 |
| COc1cc2ncn(CC(O)c3ccc(Br)cc3)c(=O)c2cc1OC (stereo unspecified) | inhibition | % | 0 |
| COc1cc2ncn(Cc3cccc(Br)c3)c(=O)c2cc1OC | inhibition | % | 22 |

Origin of values: ChEMBL document CHEMBL3792341
